tissue uptake at 4 h overview
assay: Biodistribution in BALB/c nude mice bearing A431-CCK2R/A431-mock xenografts; type: in vivo; details: female, athymic BALB/c nude, mouse, intestine, iv, 20 pmol, total radioactivity, xenografted BALB/c nude mice, i.v., ~20 pmol, 4 h p.i. (indium-111 or lutetium-177), mean ± SD n = 4; read-out: Uptake in intestine
Where a SMILES comes first, the peptide text is derived from it. [ ]: non-standard residue; d: D form. The star is where a group is joined. DOTA = O=C(O)CN1CCN(CC(=O)O)CCN(CC(=O)*)CCN(CC(=O)O)CC1; 1Nal = N[C@@H](Cc1cccc2ccccc12)C(=O)O; NMeNle = CCCC[C@H](NC)C(=O)O
Your answer is read as %ID/g, so omit the unit and give the number.

A selection of reference data follows.
So for CCCC[C@@H](C(=O)N[C@@H](CC(=O)O)C(=O)N[C@@H](Cc1cccc2ccccc12)C(=O)NC)N(C)C(=O)[C@H](Cc1c[nH]c2ccccc12)NC(=O)CNC(=O)[C@H](Cc1ccc(O)cc1)NC(=O)[C@H](C)NC(=O)[C@@H](CCC(=O)O)NC(=O)CN1CCN(CC(=O)O)CCN(CC(=O)O)CCN(CC(=O)O)CC1 [[^111In]In-DOTA-MGS5[NHCH3], metal not drawn] , the logged tissue uptake at 4 h turned out to be 0.59

Reported tissue uptake at 4 h ( CCCC[C@@H](C(=O)N[C@@H](CC(=O)O)C(=O)N[C@@H](Cc1ccc2ccccc2c1)C(N)=O)N(C)C(=O)[C@H](Cc1c[nH]c2ccccc12)NC(=O)CNC(=O)[C@H](Cc1ccc(O)cc1)NC(=O)[C@H](C)NC(=O)[C@@H](CCC(=O)O)NC(=O)CN1CCN(CC(=O)O)CCN(CC(=O)O)CCN(CC(=O)O)CC1 [[^111In]In-DOTA-[2Nal^8]MGS5, metal not drawn] ) = 0.95

// sample CCCC[C@@H](C(=O)N[C@@H](CC(=O)O)C(=O)N(C)[C@@H](Cc1cccc2ccccc12)C(N)=O)N(C)C(=O)[C@H](Cc1c[nH]c2ccccc12)NC(=O)CNC(=O)[C@H](Cc1ccc(O)cc1)NC(=O)[C@H](C)NC(=O)[C@@H](CCC(=O)O)NC(=O)CN1CCN(CC(=O)O)CCN(CC(=O)O)CCN(CC(=O)O)CC1 [[^111In]In-DOTA-[(N-Me)1Nal^8]MGS5, metal not drawn] , its tissue uptake at 4 h was 0.81

Next:
What the record says about CCCC[C@@H](C(=O)N[C@@H](CC(=O)O)C(=O)N[C@@H](Cc1cccc2ccccc12)C(N)=O)N(C)C(=O)[C@H](Cc1c[nH]c2ccccc12)NC(=O)CNC(=O)[C@H](Cc1ccc(O)cc1)NC(=O)[C@H](C)NC(=O)[C@@H](CCCCN)NC(=O)CN1CCN(CC(=O)O)CCN(CC(=O)O)CCN(CC(=O)O)CC1 [[^111In]In-DOTA-[DLys^1]MGS5, metal not drawn] ({DOTA}-[dK]AYGW[NMeNle]D[1Nal]-NH2) : tissue uptake at 4 h is 1.96
